Reported pIC50 by item:
Biological target: human full-length MKNK1 (Homo sapiens, UniProt Q9BUB5, T385D)
Construct: GST (N); purchased Carna Biosciences 02-145; host or cells: insect cells (baculovirus expression system)
Sequence (Q9BUB5 1-424 isoform Q9BUB5-2 T344D): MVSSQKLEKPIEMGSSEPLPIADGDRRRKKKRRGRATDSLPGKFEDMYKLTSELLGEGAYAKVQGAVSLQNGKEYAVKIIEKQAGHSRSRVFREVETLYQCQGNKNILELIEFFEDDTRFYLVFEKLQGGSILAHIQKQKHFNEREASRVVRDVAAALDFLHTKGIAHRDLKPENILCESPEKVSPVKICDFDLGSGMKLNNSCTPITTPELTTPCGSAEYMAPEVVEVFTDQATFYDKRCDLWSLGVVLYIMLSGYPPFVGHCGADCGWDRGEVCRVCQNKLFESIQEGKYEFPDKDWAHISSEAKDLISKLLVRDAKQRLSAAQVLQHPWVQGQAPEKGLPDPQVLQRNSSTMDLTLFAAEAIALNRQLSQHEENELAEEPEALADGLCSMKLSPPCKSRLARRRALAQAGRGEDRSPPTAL
Assay: MKNK1 kinase high ATP assay (TR-FRET)
Format: biochemical
Conditions: Table 1; MKNK1 kinase high ATP assay, 2 mM ATP; read-out: MKNK1 IC50
pIC50: −log10 of the molar value.
value.type: pIC50

> print(dat)
                    structure.smiles.string  result
1  C[C@@H]1CN(C(=O)[C@H]2CCc3c(sc4ncnc(Nc5cc6cn[nH]c6cc5N(C)C)c34)C2)C[C@H](C)O1   10.00
2  COc1cc2[nH]ncc2cc1Nc1ncnc2sc3c(c12)CC[C@H](C(=O)N1CC[C@@H](N(C)C)C1)C3    9.40
3  CN(C)C1CCN(c2cc3[nH]ncc3cc2Nc2ncnc3sc4c(c23)CC[C@H](C(=O)N2C[C@H]3C[C@@H]2CO3)C4)CC1    7.64
4  C[C@H]1CN(C(=O)[C@H]2CCc3c(sc4ncnc(Nc5cc6cn[nH]c6cc5Br)c34)C2)C[C@H](C)O1    7.84
5  CN(C)C(=O)[C@H]1CCc2c(sc3ncnc(Nc4cc5cn[nH]c5cc4OCCNCC(C)(C)C)c23)C1    8.36
6  CC(C)Oc1cc2[nH]ncc2cc1Nc1ncnc2sc3c(c12)CC[C@H](C(=O)N1C[C@H]2C[C@@H]1CO2)C3    9.52
7  CCN(C)C(=O)[C@H]1CCc2c(sc3ncnc(Nc4cc5cn[nH]c5cc4N4CCC(N(C)C)CC4)c23)C1    8.00

====

Target: human full-length MKNK1 (Homo sapiens, UniProt Q9BUB5, T385D)
Construct: GST (N); purchased Carna Biosciences 02-145; host or cells: insect cells (baculovirus expression system)
Test: MKNK1 kinase high ATP assay (TR-FRET)
Type: biochemical
Conditions: Table 1; MKNK1 kinase high ATP assay, 2 mM ATP; read-out: MKNK1 IC50
Under this convention, Condition met denotes IC50 strictly below 0.7 nM and Condition not met denotes IC50 at or above 0.7 nM.

> print(dat)
                     structure.smiles.string        class.label
 1  COc1cc2[nH]ncc2cc1Nc1ncnc2sc3c(c12)CC[C@H](C(=O)N(C)CCO)C3      Condition met
 2  CC(C)N(C)C(=O)[C@H]1CCc2c(sc3ncnc(Nc4cc5cn[nH]c5cc4N4CCC(N(C)C)CC4)c23)C1  Condition not met
 3  CCN(CCOC)C(=O)[C@H]1CCc2c(sc3ncnc(Nc4cc5cn[nH]c5cc4N4CCC(N(C)C)CC4)c23)C1  Condition not met
 4  COc1cc2[nH]ncc2cc1Nc1ncnc2sc3c(c12)CC[C@H](C(=O)N(C)CCCn1ccnc1)C3      Condition met
 5  CCN(C(=O)[C@H]1CCc2c(sc3ncnc(Nc4cc5cn[nH]c5cc4OC(C)C)c23)C1)C(C)C      Condition met
 6  C[C@H]1CN(C(=O)[C@H]2CCc3c(sc4ncnc(Nc5cc6cn[nH]c6cc5N(C)C)c34)C2)C[C@H](C)O1      Condition met
 7  COc1cc2[nH]ncc2cc1Nc1ncnc2sc3c(c12)CC[C@H](C(=O)N1CCC(F)(F)C1)C3      Condition met
 8  CN(C)C(=O)[C@H]1CCc2c(sc3ncnc(Nc4cc5cn[nH]c5cc4OCCNC(=O)CC(C)(C)C)c23)C1  Condition not met
 9  C[C@H](N)COc1cc2[nH]ncc2cc1Nc1ncnc2sc3c(c12)CC[C@H](C(=O)N1CCOC[C@@H]1C)C3  Condition not met
10  C[C@H](CN)Oc1cc2[nH]ncc2cc1Nc1ncnc2sc3c(c12)CC[C@H](C(=O)N1CCOC[C@H]1C)C3  Condition not met
11  CN(C)C(=O)[C@H]1CCc2c(sc3ncnc(Nc4cc5cn[nH]c5cc4OCCN)c23)C1      Condition met
12  CCOc1cc2[nH]ncc2cc1Nc1ncnc2sc3c(c12)CC[C@H](C(=O)N1CC[C@@H](N(C)C)C1)C3      Condition met
13  CN(C)C(=O)[C@H]1CCc2c(sc3ncnc(Nc4cc5cn[nH]c5cc4OCCN4CCCCC4)c23)C1  Condition not met
